Data provenance is PubChem BioAssay (NCI).

System: A498 renal
Assay Text: NCI tumour cell line growth inhibition, 48 h; in the data active = GI50 below about 0.43 µM; inactive = the rest
Give your call using only these classes: active, inactive

Example entries and their recorded answers appear below.
O=c1c(Oc2ccc(F)cc2F)cc2cnc(NC3CCOCC3)nc2n1CCCO; inactive
Clc1nc(Cl)c2ncn(Cc3cccc(Cn4cnc5c(Cl)nc(Cl)nc54)c3)c2n1; inactive
COc1ccc(S(=O)(=O)N2CC(C)(C)CN(S(=O)(=O)c3ccc(OC)cc3)C2C(=O)NO)cc1; inactive
C#CCOc1cccc(-c2ncnc3cc(NC(=O)CCl)ccc23)c1; inactive
Cc1ccc(-c2csc(/N=C3\C(=O)Nc4ccccc43)n2)cc1; inactive
CCC[CH2][Sn]([CH2]CCC)([CH2]CCC)[O]c1ccc(Cl)cc1Cl; active
OCc1ccc(-c2ccc(-c3ccc(CO)o3)[se]2)o1; active
S=C(Nc1ccc(Br)cc1)Nc1ccc(Br)cc1; inactive

Name the outcome recorded for [Cl-].[O-]/N=C(\c1ccccc1)c1ccccn1.[O-]/N=C(\c1ccccc1)c1ccccn1.[O-]/N=C(\c1ccccc1)c1ccccn1.[Sm+3] in the assay.
inactive

Request: CCOC(=O)N1CCN(c2nc(Nc3cc(C)[nH]n3)c3ccccc3n2)CC1
active

Request: CCCNNC(=O)/C=C/c1ccc(CNCCc2c(C)[nH]c3ccccc23)cc1
active

Request: CO[C@H]1/C=C/O[C@@]2(C)Oc3c(C)c(O)c4c(c3C2=O)C(=O)C(/C=N/N(c2ccccc2)c2ccccc2)=C(NC(=O)/C(C)=C\C=C\[C@H](C)[C@H](O)[C@@H](C)[C@@H](O)[C@@H](C)[C@H](OC(C)=O)[C@@H]1C)C4=O
inactive

Request: C=C1C(=O)O[C@H]2[C@H]1CC/C(COC(=O)CSCCSCC(=O)OC/C1=C/CC[C@@]3(C)O[C@H]3[C@H]3OC(=O)C(=C)[C@@H]3CC1)=C\CC[C@@]1(C)O[C@@H]21
inactive

Request: COC(=O)c1c2c(c[n+]([O-])c1C)C(=O)C=CC2=O
inactive

Request: Cc1nc(SCC(=O)Nc2nc(-c3ccc(Cl)cc3)cs2)n(Nc2ccccc2)c1C
inactive
